# target-of-assay: Yer184c (UniProt P39961)
# Sequence: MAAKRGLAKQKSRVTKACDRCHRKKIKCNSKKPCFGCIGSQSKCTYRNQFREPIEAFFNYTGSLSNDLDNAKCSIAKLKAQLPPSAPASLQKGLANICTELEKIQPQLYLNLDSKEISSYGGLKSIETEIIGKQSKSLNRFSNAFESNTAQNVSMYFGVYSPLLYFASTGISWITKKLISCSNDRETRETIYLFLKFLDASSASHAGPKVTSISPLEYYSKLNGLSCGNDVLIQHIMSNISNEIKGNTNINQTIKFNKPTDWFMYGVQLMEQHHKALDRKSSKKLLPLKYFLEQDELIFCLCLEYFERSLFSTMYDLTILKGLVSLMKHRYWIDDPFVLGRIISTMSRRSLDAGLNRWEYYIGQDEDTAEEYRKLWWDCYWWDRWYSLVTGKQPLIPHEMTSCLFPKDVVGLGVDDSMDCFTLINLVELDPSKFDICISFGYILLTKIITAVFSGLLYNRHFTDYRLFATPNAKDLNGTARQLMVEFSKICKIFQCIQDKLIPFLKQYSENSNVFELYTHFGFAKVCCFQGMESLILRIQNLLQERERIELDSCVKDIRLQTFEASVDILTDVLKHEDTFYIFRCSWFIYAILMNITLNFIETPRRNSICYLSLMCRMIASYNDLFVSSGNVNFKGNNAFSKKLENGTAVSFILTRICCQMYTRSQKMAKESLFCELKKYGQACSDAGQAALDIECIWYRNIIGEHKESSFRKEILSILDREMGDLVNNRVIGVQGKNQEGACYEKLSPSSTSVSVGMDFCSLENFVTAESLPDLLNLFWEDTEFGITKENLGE
# test-protocol: PBM E-score (8-mer binding enrichment) (E-score (-0.5 to 0.5)); higher = stronger / more preferred TF binding
# measurement-context: protein concentration: 100 nM; construct: GST-full length
The full ranking holds about 33,000 sequences; the median of “E-score (-0.5 to 0.5)” is about -0.016, and the highest 2% start at about 0.3. This excerpt belongs to a sample that is enriched for the highest values.
Think of 0.3 as a floor: if PBM E-score stands on it or above, it is satisfied; beneath it, not satisfied.

Consider the following illustrative entries.
* ATAAATTG | not satisfied
* ACCGAAGA | satisfied
* TCCGAAGA | satisfied

Now look at this entry.
Query: Quick check: does `CATGGTGC` have PBM E-score greater than or equal to 0.3?
Reply: not satisfied
